Recorded measurements of cytotoxicity at 10 µM, one per entry
# procedure_text: Toxicity liver stage against HepG2, at 10uM
# Type: cell-based
# Set-up: test concentration 10 uM, cell line HepG2-A16-CD81EGFP
# condition_description: human, HepG2-A16-CD81EGFP cells; read-out: INHIBITION
Only the number, expressed in %, is required.

Examples with answers:
# compound, assay_metric, test_result
rows = [
    ("CCC(=O)N1C[C@@H]2CCN(c3cnccn3)C[C@@H]2C1", "cytotoxicity at 10 µM", -13.2),
    ("Cc1nonc1CN(C)CC1(O)CCCN(CCC2CCCCC2)C1=O (stereo not drawn)", "cytotoxicity at 10 µM", 49.4),
    ("COc1cccc(C2CC(=O)Nc3nc(N4CCCCC4)sc32)c1OC (stereo not drawn)", "cytotoxicity at 10 µM", 10.4),
    ("CN(CCNC(=O)Nc1ccn(C)n1)Cc1ccc(F)cc1", "cytotoxicity at 10 µM", 8.16),
    ("CCN1CC2(CCN(C(=O)C(C)Oc3ccc(F)cc3Cl)CC2)CC1=O (stereo not drawn)", "cytotoxicity at 10 µM", -2.98),
    ("Cn1ccnc1CN1CCN(Cc2ccncc2)[C@@H]2CS(=O)(=O)C[C@@H]21", "cytotoxicity at 10 µM", 1.5),
    ("c1ccc(CN2CCOC3CNCC[C@H]32)cc1 (stereo partly drawn)", "cytotoxicity at 10 µM", 6.31),
    ("O=C(NC1CCN(c2cccc(OC(F)(F)F)c2)C1=O)C1CCC1 (stereo not drawn)", "cytotoxicity at 10 µM", -3.11),
]

The value of cytotoxicity at 10 µM measured for the compound Cc1cccc(C(=O)N2CCCCC2c2[nH]ncc2S(C)(=O)=O)c1 (stereo not drawn) turned out to be -7.44

The recorded cytotoxicity at 10 µM for entry "CCc1nccn1CC(=O)Nc1cccc(N2CCCC2)c1" equals 17.1

So, O=C(NCCc1cccs1)NCC(O)c1cccc(F)c1 (stereo not drawn) ? Its cytotoxicity at 10 µM was -4.07

# compound Cc1cc(C)cc(OCCNC(=O)C(C)Sc2nncn2C)c1 (stereo not drawn) ; its cytotoxicity at 10 µM = -46.3

"O=C(c1ccc2c(c1)OCO2)N1CCC(C(=O)O)(c2ccccc2)CC1" yielded cytotoxicity at 10 µM of 7.33

The compound listed as "O=C(N[C@@H]1CNCCC[C@H]1O)c1ccc(OCCN2CCOCC2)cc1" shows cytotoxicity at 10 µM equal to 3.11

The reported value for CC(C)c1nc(C2CCCN(c3cnc4ccccc4n3)C2)no1 (stereo not drawn) in terms of cytotoxicity at 10 µM is 2.11

Reported cytotoxicity at 10 µM of CCOc1ncccc1C(=O)N1CCCC1Cn1nc(C)cc1C (stereo not drawn) : -4.45

cytotoxicity at 10 µM recorded for this compound, "CCC[C@@H]1CN(S(=O)(=O)c2ccc(OC)c(OC)c2)C[C@H]1NC(C)=O" , is 3.06

So for CCc1nc(CN(C)C2CCN(Cc3nnc(C4CCC4)o3)C2)no1 (stereo not drawn) , the logged cytotoxicity at 10 µM turned out to be 0.239

====

# procedure_text: Toxicity liver stage against HepG2, at 10uM
# Type: cell-based
# Parameters: test concentration 10 uM, cell line HepG2-A16-CD81EGFP
# condition_description: human, HepG2-A16-CD81EGFP cells; read-out: INHIBITION
assay_metric: cytotoxicity at 10 µM (%)
# output: bare number, implied unit %

Solved entries (count: 8):
# compound, units_of_measure, cytotoxicity at 10 µM
rows = [
    ("COc1ccc(C2CC(=O)Nc3nc(N4CCOCC4)sc32)cc1 (stereo unspecified)", "%", 10.8),
    ("CC(=O)c1c(C)nn(S(=O)(=O)c2ccc(C)cc2)c1C", "%", -1.61),
    ("CN(Cc1ccco1)[C@@H]1CN(Cc2ccc(F)cc2)C[C@@H]2CCCO[C@@H]21", "%", 2.91),
    ("COc1ncccc1CNCc1c(C)nn(C)c1N(C)C", "%", -7.62),
    ("CN(CCCc1cc(-c2ccc(F)cc2)n(C)n1)CC(=O)NC(N)=O", "%", 1.04),
    ("O=C1CN(CC[C@@H](O)c2ccccc2)CCN1c1ccccc1Cl", "%", 1.29),
    ("COc1cccc(CN(C)C(C)c2ccon2)c1OCCn1ccnc1 (stereo unspecified)", "%", -5.17),
    ("CCOCC(=O)Nc1ccc(N2CCSCC2)cc1C", "%", 9.53),
]

// recorded cytotoxicity at 10 µM for Cc1cnn(C2CN(CC(O)c3ccccc3)C2)c1 (stereo unspecified) : -2.55

compound "CCCn1ccnc1-c1nccn1CCN(C)C" , cytotoxicity at 10 µM observed: -1.04

// cytotoxicity at 10 µM lookup, compound = "CCO[C@H]1CC[C@H]2[C@H]1OCCN2CCOCc1ccccc1" , result: -111
